Each record here notes measured Bliss excess.
Tested on: IA-LM (Non-Small Cell Lung Carcinoma)
Assay: Bliss excess, mean over the matrix (fraction); higher = more synergy;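 note: after 72 h of two-drug dosing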

Molecule	Bliss excess
Cc1c2c(nn1C)CSCc1cc(n(C)n1)CSc1cc(c3ccccc3c1)OCCCc1c(C(=O)O)n(C)c3c-2c(Cl)ccc13 [AZD5991] + C=CCn1c(=O)c2cnc(Nc3ccc(N4CCN(C)CC4)cc3)nc2n1-c1cccc(C(C)(C)O)n1 [AZD1775] (first compound max 1 µM, partner max 1 µM)	-0.0011
Cn1cnc2c(F)c(Nc3ccc(Br)cc3Cl)c(C(=O)NOCCO)cc21 [Selumetinib] + CC(C)n1c(=O)n(C)c2cnc3cc(F)c(-c4ccc(OCCCN5CCCCC5)nc4)cc3c21 [AZD1390] (first compound max 10 µM, 7x7, partner max 0.3 µM)	-0.0102
CN(CCO)CC[C@H](CSc1ccccc1)Nc1ccc(S(=O)(=O)NC(=O)c2ccc(N3CCC([C@@H](O)c4ccccc4-c4ccc(Cl)cc4)CC3)cc2)cc1S(=O)(=O)C(F)(F)F [AZD4320] + CC(=O)O[C@H]1C(=O)[C@@]2(C)[C@H]([C@H](OC(=O)c3ccccc3)[C@]3(O)C[C@H](OC(=O)[C@H](O)[C@@H](NC(=O)c4ccccc4)c4ccccc4)C(C)=C1C3(C)C)[C@]1(OC(C)=O)CO[C@@H]1C[C@@H]2O [Paclitaxel] (first compound max 1 µM, 7x7, partner max 3 µM)	0.08
C[C@@H](Oc1cc(-c2cnn(C3CCNCC3)c2)cnc1N)c1c(Cl)ccc(F)c1Cl [Crizotinib] + Cn1cnc2c(F)c(Nc3ccc(Br)cc3Cl)c(C(=O)NOCCO)cc21 [Selumetinib] (first compound max 10 µM, 7x7, partner max 10 µM)	-0.0463
CN(CCO)CC[C@H](CSc1ccccc1)Nc1ccc(S(=O)(=O)NC(=O)c2ccc(N3CCC([C@@H](O)c4ccccc4-c4ccc(Cl)cc4)CC3)cc2)cc1S(=O)(=O)C(F)(F)F [AZD4320] + C=CCn1c(=O)c2cnc(Nc3ccc(N4CCN(C)CC4)cc3)nc2n1-c1cccc(C(C)(C)O)n1 [AZD1775] (first compound max 1 µM, partner max 1 µM)	0.0161

====

Tested on: RCC-JW (Kidney Carcinoma)
Test: Bliss excess, mean over the matrix (fraction); higher = more synergy
Quick reference: Bliss excess of the listed items.

Molecule	Bliss excess
CC1(C)CCC(CN2CCN(c3ccc(C(=O)NS(=O)(=O)c4ccc(NCC5CCOCC5)c([N+](=O)[O-])c4)c(Oc4cnc5[nH]ccc5c4)c3)CC2)=C(c2ccc(Cl)cc2)C1 [Venetoclax] + COc1cc(Nc2ncc3c(n2)-c2ccc(Cl)cc2C(c2c(F)cccc2OC)=NC3)ccc1C(=O)O [Alisertib] (first compound max 1 µM, 7x7, partner max 10 µM)	-0.0415
C=CCn1c(=O)c2cnc(Nc3ccc(N4CCN(C)CC4)cc3)nc2n1-c1cccc(C(C)(C)O)n1 [AZD1775] + Nc1ccn([C@@H]2O[C@H](CO)[C@@H](O)C2(F)F)c(=O)n1 [Gemcitabine] (first compound max 1 µM, partner max 0.3 µM)	-0.0163
COc1cccc(OCCCN)c1-c1cc(Nc2cnc(C#N)cn2)n[nH]1 [Prexasertib] + C=CCn1c(=O)c2cnc(Nc3ccc(N4CCN(C)CC4)cc3)nc2n1-c1cccc(C(C)(C)O)n1 [AZD1775] (first compound max 1 µM, partner max 1 µM)	0.169
Cc1cc2ncnn2cc1Nc1ncc2c(n1)n(C1CCOCC1)c(=O)n2C [AZD7648] + C=CCn1c(=O)c2cnc(Nc3ccc(N4CCN(C)CC4)cc3)nc2n1-c1cccc(C(C)(C)O)n1 [AZD1775] (first compound max 10 µM, partner max 1 µM)	-0.0102
Cc1c2c(nn1C)CSCc1cc(n(C)n1)CSc1cc(c3ccccc3c1)OCCCc1c(C(=O)O)n(C)c3c-2c(Cl)ccc13 [AZD5991] + CN(C)CCCOc1ccc(-c2ccc3ncc4c(c3c2)n(C2CCOCC2)c(=O)n4C)cn1 [AZD0156] (first compound max 1 µM, 7x7, partner max 1 µM)	-0.0001
C[C@@H](c1ccc2nccn2c1)n1nnc2ncc(-c3cnn(C)c3)nc21 [Savolitinib] + Cc1c2c(nn1C)CSCc1cc(n(C)n1)CSc1cc(c3ccccc3c1)OCCCc1c(C(=O)O)n(C)c3c-2c(Cl)ccc13 [AZD5991] (first compound max 1 µM, 7x7, partner max 1 µM)	-0.0354
CC1(C)CCC(CN2CCN(c3ccc(C(=O)NS(=O)(=O)c4ccc(NCC5CCOCC5)c([N+](=O)[O-])c4)c(Oc4cnc5[nH]ccc5c4)c3)CC2)=C(c2ccc(Cl)cc2)C1 [Venetoclax] + Cn1cnc2c(F)c(Nc3ccc(Br)cc3Cl)c(C(=O)NOCCO)cc21 [Selumetinib] (first compound max 1 µM, 7x7, partner max 3 µM)	-0.0396
CCN(CCO)CCCOc1ccc2c(Nc3cc(CC(=O)Nc4cccc(F)c4)[nH]n3)ncnc2c1 [AZD2811] + C[C@@H]1COCCN1C2=NC(=NC(=C2)C3(CC3)[S@](=N)(=O)C)C4=C5C=CNC5=NC=C4 [AZD6738] (first compound max 1 µM, 7x7, partner max 10 µM)	-0.0203
